Kindly supply the reported log10 of IC50 values for the records listed here.
biological target: Syk (Homo sapiens, UniProt P43405); assay: High Throughput Syk Biochemical Assay (KinEASE TR-FRET); conditions: TABLE D, 20 μM ATP, 1 μM biotinylated peptide, 0.015 nM Syk, 30 min at room temperature, read-out: IC50
The base-10 logarithm of IC50, taken with IC50 in nM, is what appears here.

Lab entry: Syk (Homo sapiens, UniProt P43405) assay, compound `CC[C@@H](Oc1nc(-c2ccc(OC)c(OC)c2)cc2ncn(C)c12)[C@H]1CNC(=O)C1` , log10 of IC50 = 0.88

Form field log10 of IC50 for item `COc1ccc(-c2cc3ncn(C(F)F)c3c(O[C@H](C)[C@H]3CNC(=O)C3)n2)cc1OC` on Syk (Homo sapiens, UniProt P43405): 0.04

Summary: `Cc1cc(-c2cc3ncn(C)c3c(O[C@H](C)[C@H]3CNC(=O)C3)n2)n[nH]1` , Syk (Homo sapiens, UniProt P43405), log10 of IC50 = 1.36

Entry `COc1ccc(-c2cn3ncc(Cl)c3c(O[C@H](C)[C@H]3CNC(=O)C3)n2)cc1OC` : log10 of IC50 on Syk (Homo sapiens, UniProt P43405) = -0.49

// assay Syk (Homo sapiens, UniProt P43405), entry C[C@@H](Oc1cc(-c2ccc(N3CCN(C4COC4)CC3)cc2)cc2ncsc12)[C@H]1CNC(=O)C1 (stereo in doubt) , log10 of IC50 value = -0.17

For the compound `C[C@@H](Oc1nc(-c2cnn(C3CCOCC3)c2)cc2ncn(C)c12)[C@H]1CNC(=O)C1` , the measured log10 of IC50 on Syk (Homo sapiens, UniProt P43405) was 1.01

The reported Syk (Homo sapiens, UniProt P43405) log10 of IC50 of C[C@@H](Oc1cc(-c2ccc(N3CCN(C4COC4)CC3)cn2)cc2ncsc12)[C@H]1CNC(=O)C1 (stereo in doubt) is 0.24

Entry `C=CC[C@@H](Oc1nc(-c2cnn(C(C)(C)C)c2)cc2ncn(C)c12)[C@H]1CNC(=O)C1` ; assay system Syk (Homo sapiens, UniProt P43405); log10 of IC50 recorded at 1.28

The compound `C[C@@H](Oc1cc(-c2cnn(C(C)(C)C)c2)cn2ncc(Cl)c12)[C@H]1CNC(=O)C1` on Syk (Homo sapiens, UniProt P43405): log10 of IC50 was -0.57

// log10 of IC50 (Syk (Homo sapiens, UniProt P43405)) for `C[C@@H](Oc1nc(-c2cnn(C(C)(C)C)c2)cc2ncn(C)c12)[C@H]1CNC(=O)C1` = 0.69

I looked up `COc1ccc(-c2cc(O[C@H](C)[C@H]3CNC(=O)C3)c3c(Cl)cnn3c2)cc1OC` and its log10 of IC50 for Syk (Homo sapiens, UniProt P43405) was 0.03

Syk (Homo sapiens, UniProt P43405) assay, compound `COc1ccc(-c2cc3ncn(C)c3c(O[C@H](C)[C@H]3CNC(=O)C3)n2)cc1F` , recorded log10 of IC50 = 1.24

Value sought: log10 of IC50, system Syk (Homo sapiens, UniProt P43405), item `C[C@@H](Oc1nc(-c2cnn(CC(F)F)c2)cc2ncn(C)c12)[C@H]1CNC(=O)C1` . Result: 1.25

Summary line: `COc1ccc(-c2cc(O[C@H](C)[C@H]3CNC(=O)C3)c3ccnn3c2)nc1OC` , Syk (Homo sapiens, UniProt P43405), reported log10 of IC50 = 0.68

So the reported log10 of IC50 for `C[C@@H](Oc1nc(-c2cnn(C3CCC3)c2)cc2ncn(C)c12)[C@H]1CNC(=O)C1` , on Syk (Homo sapiens, UniProt P43405), turned out to be 0.88

The reported log10 of IC50 value, Syk (Homo sapiens, UniProt P43405), for C[C@@H](Oc1cc(-c2cnn(C(C)(C)C)c2)cc2ncsc12)[C@H]1CNC(=O)C1 (stereo in doubt) reads -0.05

Log: Syk (Homo sapiens, UniProt P43405), compound `COc1ccc(-c2cc3nc(C)n(C4CC4)c3c(O[C@H](C)[C@H]3CNC(=O)C3)n2)cc1OC` , log10 of IC50 = 1.98

This collection of values is drawn from patent US10005774B2.
